pIC50 values for the molecules below.
Biological target: recombinant M. abscessus wild-type DNA gyrase (Mycobacteroides abscessus, UniProt B1ME45+B1ME58)
Sequence (B1ME58 entry or part of it): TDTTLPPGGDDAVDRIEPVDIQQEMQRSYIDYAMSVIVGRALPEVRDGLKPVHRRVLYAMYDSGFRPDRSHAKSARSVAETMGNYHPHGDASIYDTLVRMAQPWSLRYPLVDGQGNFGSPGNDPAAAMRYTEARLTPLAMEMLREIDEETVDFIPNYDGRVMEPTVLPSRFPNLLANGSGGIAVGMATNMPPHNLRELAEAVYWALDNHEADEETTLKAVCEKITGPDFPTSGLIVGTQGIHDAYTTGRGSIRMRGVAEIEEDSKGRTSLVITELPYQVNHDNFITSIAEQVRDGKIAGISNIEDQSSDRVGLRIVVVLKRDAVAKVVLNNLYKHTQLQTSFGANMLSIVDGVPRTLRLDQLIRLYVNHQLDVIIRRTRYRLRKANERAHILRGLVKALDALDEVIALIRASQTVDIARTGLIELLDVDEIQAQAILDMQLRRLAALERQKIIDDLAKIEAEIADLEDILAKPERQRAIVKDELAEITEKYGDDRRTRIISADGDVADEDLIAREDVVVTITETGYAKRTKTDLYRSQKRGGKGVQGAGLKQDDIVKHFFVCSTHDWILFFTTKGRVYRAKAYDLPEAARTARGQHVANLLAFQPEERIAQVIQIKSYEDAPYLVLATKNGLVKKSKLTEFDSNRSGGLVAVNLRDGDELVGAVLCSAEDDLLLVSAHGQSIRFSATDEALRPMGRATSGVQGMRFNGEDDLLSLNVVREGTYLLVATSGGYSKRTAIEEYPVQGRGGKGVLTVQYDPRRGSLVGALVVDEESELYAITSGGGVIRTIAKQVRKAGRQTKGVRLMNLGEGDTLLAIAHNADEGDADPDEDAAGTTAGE
Sequence (B1ME45 entry or part of it): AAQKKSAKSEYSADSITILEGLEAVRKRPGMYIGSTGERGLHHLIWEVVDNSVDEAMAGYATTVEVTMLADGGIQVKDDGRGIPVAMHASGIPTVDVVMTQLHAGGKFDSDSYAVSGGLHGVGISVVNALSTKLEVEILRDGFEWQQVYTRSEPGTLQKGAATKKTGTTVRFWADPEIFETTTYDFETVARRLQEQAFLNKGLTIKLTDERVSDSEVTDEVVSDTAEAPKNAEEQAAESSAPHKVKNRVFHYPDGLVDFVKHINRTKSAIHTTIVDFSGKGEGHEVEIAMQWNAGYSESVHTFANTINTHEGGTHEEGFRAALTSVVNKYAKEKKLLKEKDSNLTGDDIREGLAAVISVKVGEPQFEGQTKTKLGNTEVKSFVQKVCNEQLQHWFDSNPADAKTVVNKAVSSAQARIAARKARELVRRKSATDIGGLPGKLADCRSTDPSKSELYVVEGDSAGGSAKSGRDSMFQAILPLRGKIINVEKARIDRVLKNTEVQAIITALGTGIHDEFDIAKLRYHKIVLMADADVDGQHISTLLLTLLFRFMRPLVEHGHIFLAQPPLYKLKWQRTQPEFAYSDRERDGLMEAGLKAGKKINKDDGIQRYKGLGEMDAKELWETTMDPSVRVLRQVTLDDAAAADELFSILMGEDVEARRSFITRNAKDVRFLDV
Assay: biochemical
Conditions: wild-type DNA gyrase, relaxed pBR322 substrate; read-out: IC50, supercoiling activity
Note on pIC50: it is the negative log10 of concentration, concentration in mol/L.

Q: Indicate the recorded pIC50 value for this molecule: `CCNC(=O)Nc1nc2cc(-c3cnc(C(C)(C)O)nc3)c(F)c([C@H]3CCCO3)c2[nH]1`
A: 5.64

Q: Look up pIC50 of `COc1ccc2nccc(NC(=O)C3CCN(CCc4ccc(C(F)(F)F)cc4)CC3)c2n1` and report it.
A: 5.72

Q: Item `COc1ccc2nccc(NC(=O)C3CCN(CCc4ccc(Cl)cc4)CC3)c2n1` : provide pIC50
A: 5.34
